tested on: SNB-75 CNS; experiment: NCI-60 one-dose screen, 48 h; conditions: 10 µM unless noted
About 83,000 compounds went through this panel and 20% of them were active in at least one assay; those are over-represented in the sample as a whole. The source made the active and inactive calls. How the source made its calls: active means growth percent below 10; inactive means the rest.
Outcome codes: y (active), n (inactive)

- smi: "Brc1cccc(-c2cc(-c3cnc4c(c3)OCCO4)n[nH]2)c1"
  assignedLabel: "n"
- smi: "O=C1Nc2ccc(F)cc2/C1=C\\C(=O)c1ccc(NS(=O)(=O)c2ccccc2)cc1"
  assignedLabel: "n"
- smi: "CC(=O)OC[C@@]12Oc3c(cccc3-c3ccc(O)c4c3O[C@]3(COC(C)=O)C(=C4O)C(=O)C[C@H](C)[C@@H]3OC(C)=O)C(O)=C1C(=O)C[C@H](C)[C@@H]2OC(C)=O"
  assignedLabel: "y"
- smi: "COc1ccc2c(c1)c(-c1nc(N)nnc1-c1c[nH]c3ccccc13)cn2C"
  assignedLabel: "y"
- smi: "CCCN1C=C/C(=C\\C(=O)n2ccc3ccccc32)c2ccccc21"
  assignedLabel: "n"
- smi: "O=C(CCCCCCN1CC(=O)N2[C@@H](c3ccccc3Br)c3[nH]c4ccccc4c3C[C@H]2C1=O)NO"
  assignedLabel: "n"
- smi: "O=c1nc(Nc2ccc([N+](=O)[O-])cc2O)sc2ccccc12"
  assignedLabel: "y"
- smi: "C#Cc1nc(/C=C/CCCCCCC(=O)NO)cs1"
  assignedLabel: "y"
- smi: "Clc1ccc2c(N/N=C/c3c[nH]c4ccccc34)ccnc2c1"
  assignedLabel: "y"

---

tested on: SNB-75 CNS; experiment: NCI-60 one-dose screen, 48 h; settings: 10 µM unless noted
Compounds without any hit were thinned out: in the full panel of roughly 83,000, 20% have a hit. Active and inactive are the calls of the source. How the source made its calls: active means growth percent below 10; inactive means the rest.
Outcome codes: active, inactive

- compound: "CN(C)c1ccc(-c2cc(-c3c[nH]c4ccccc34)nc(N)c2C#N)cc1"
  assignedLabel: "inactive"
- compound: "O=C(COc1ccc(/C=C2\\C(=O)Nc3ccc(F)cc32)cc1)Nc1ccccc1"
  assignedLabel: "inactive"
- compound: "NNc1nnc2nc(Nc3ccccc3)nc(Nc3ccc(S(N)(=O)=O)cc3)n12"
  assignedLabel: "inactive"
- compound: "COc1cccc(N2CCN(C3=C(Cl)C(=O)c4ncccc4C3=O)CC2)c1"
  assignedLabel: "inactive"
- compound: "O=C(/C=C/c1cccc(C(F)(F)F)c1)Nc1cccc(C(F)(F)F)c1"
  assignedLabel: "inactive"
- compound: "CC(C)(O)c1cncc(-c2ccc3ncc(C#N)c(N4CCc5cc(F)c(Cl)cc54)c3c2)c1"
  assignedLabel: "active"
- compound: "Cc1ccc(N2CCN(C3=C(Cl)C(=O)c4ncccc4C3=O)CC2)cc1"
  assignedLabel: "inactive"
- compound: "CN1CCN(Cc2ccc(NC(=O)c3cncc(C#Cc4cnc5ccc(OCCCS(C)(=O)=O)nn45)c3)cc2C(F)(F)F)CC1"
  assignedLabel: "active"
- compound: "NC1[C@H]2CN(c3cnc(C(=O)Nc4cc(F)cc5cccnc45)cn3)C[C@@H]12 (some centres undefined)"
  assignedLabel: "inactive"

---

system: NCI-H322M lung; test: NCI-60 one-dose screen, 48 h (100 = growth as untreated, 0 = no growth, -100 = all killed); conditions: 10 µM unless noted
The panel holds about 83,000 compounds, 20% with a hit somewhere; the sample as a whole holds those more often.

- compound: "O=C(CSc1nnc(-c2cccs2)n1-c1ccccc1)Nc1ccccc1F"
  measurementTarget: "NCI-H322M lung"
  outputUnit: "%"
  growth: 103
- compound: "O=C(N/N=C/c1cc2ccccc2nc1Cl)c1cc(-c2nc3ccccc3[nH]2)nc2ccccc12"
  measurementTarget: "NCI-H322M lung"
  outputUnit: "%"
  growth: 99.9
- compound: "COc1ccccc1/C=C1\\Oc2ccc(O)c(O)c2C1=O"
  measurementTarget: "NCI-H322M lung"
  outputUnit: "%"
  growth: 102
- compound: "CC(C)(C)c1cc(NC(=O)Nc2ccc(-c3cn4c5c(sc4n3)CCc3cn(CCCN4CCCCC4)cc3-5)cc2)no1"
  measurementTarget: "NCI-H322M lung"
  outputUnit: "%"
  growth: -78.8
- compound: "COc1cc2cc(Oc3ccc(NC(=O)c4cc(C(F)(F)F)cc(C(F)(F)F)c4)cc3)c(C)nc2cc1OCCN1CCOCC1"
  measurementTarget: "NCI-H322M lung"
  outputUnit: "%"
  growth: 98
- compound: "CCCc1[nH]c(-c2cc(N)ccc2Cl)c2c1C(=O)CCCC2"
  measurementTarget: "NCI-H322M lung"
  outputUnit: "%"
  growth: 89.1
- compound: "CCCCCCOC(=O)c1cc(-c2ccc(F)cc2)nc2ccccc12"
  measurementTarget: "NCI-H322M lung"
  outputUnit: "%"
  growth: 94.9
- compound: "CC[C@]12C=CCN3CC[C@]4(C(=C(C(=O)OC)C1)Nc1cc5c(cc14)[C@@H]1[C@H](O5)[C@@H](O)[C@@]4(CC)CC(C(=O)OC)=C5Nc6cc(O)ccc6[C@@]56CCN1C46)C32 (some centres undefined)"
  measurementTarget: "NCI-H322M lung"
  outputUnit: "%"
  growth: 0.163
- compound: "Cc1csc(/N=C(N)/N=C(\\N)c2cccnc2)n1"
  measurementTarget: "NCI-H322M lung"
  outputUnit: "%"
  growth: 87.2

---

tested on: HCT-15 colon; assay: NCI-60 one-dose screen, 48 h; conditions: 10 µM unless noted
This is part of a sample that, as a whole, favours compounds with a hit. Of some 83,000 tested, about 20% had one in any assay. Calls of active or inactive are those of the source. How the source made its calls: active means growth percent below 10; inactive means the rest.
Outcome codes: True for active, False for inactive

- molecule: "CC1=C(C)C(=O)C(Nc2cccc(C)c2)=C(Br)C1=O"
  assignedLabel: "False"
- molecule: "C=C(C)[C@@H]1CC[C@]2(COP(=O)(OCC)OCC)CC[C@]3(C)[C@H](CC[C@@H]4[C@@]5(C)CC[C@H](OP(=O)(OCC)OCC)C(C)(C)[C@@H]5CC[C@]43C)[C@@H]12"
  assignedLabel: "True"
- molecule: "CC(C)(C)Nc1nc2c(OCCc3ccccc3)cccn2c1-c1ccc([N+](=O)[O-])cc1"
  assignedLabel: "False"
- molecule: "CC1=C(C)C(=O)C(Nc2ccc3c(c2)OCCO3)=C(Br)C1=O"
  assignedLabel: "False"
- molecule: "CC1=Cc2ccccc2OC12C=Cc1ccccc1O2 (centres undefined)"
  assignedLabel: "False"
- molecule: "O=C(CCCCCCN1CC(=O)N2[C@@H](c3cccs3)c3[nH]c4ccccc4c3C[C@H]2C1=O)NO"
  assignedLabel: "False"
- molecule: "CN(C)c1cccc2c(S(=O)(=O)Nc3cccc(-c4csc(NC(=O)CCCCCN5CCN(CCO)CC5)n4)c3)cccc12"
  assignedLabel: "False"
- molecule: "O=C1/C(=C/C=C/c2ccco2)SC(=S)N1Cc1ccccc1"
  assignedLabel: "False"
- molecule: "COc1cc(/C=N\\NC(=O)c2ccc3nc(-c4ccc(Br)cc4)[nH]c3c2)cc(OC)c1OC"
  assignedLabel: "False"
- molecule: "CN1CCN(Cc2ccc(/C=N/Nc3ccnc4cc(Cl)ccc34)cc2)CC1"
  assignedLabel: "False"
- molecule: "CN1CCN(c2ccc(Nc3nc(NCCCNS(=O)(=O)c4ccc(C(F)(F)F)cc4)c4sccc4n3)cc2)CC1"
  assignedLabel: "True"
- molecule: "Clc1cccc(/C=N/Nc2nc(N/N=C/c3cccc(Cl)c3)nc(N3CCCCC3)n2)c1"
  assignedLabel: "False"
- molecule: "Cn1cc(-c2cc3ncnc(Nc4ccc(CC(=O)Nc5nc(C(C)(C)C)cs5)cc4)c3s2)cn1"
  assignedLabel: "False"
- molecule: "O=[N+]([O-])c1ccc(NC(=S)NNC(=S)Nc2ccc(F)cc2)cc1"
  assignedLabel: "False"
- molecule: "CN(C)CC(=O)Nc1nc(-c2cccc(NS(=O)(=O)c3cccc4c(N(C)C)cccc34)c2)cs1"
  assignedLabel: "False"
- molecule: "COc1ccc(NC2=C(Br)C(=O)C(C)=C(C)C2=O)cc1OC"
  assignedLabel: "False"
- molecule: "CC(=O)Nc1cc(N2CCOCC2)c2nc(NC(=O)c3[nH]c(C)c(Cl)c3Cl)sc2c1"
  assignedLabel: "False"
- molecule: "O=C(O)CC1CCN(c2ccc3nnc(Cl)n3n2)CC1"
  assignedLabel: "False"
- molecule: "C#CCn1cc(/C=N/Nc2nc(-c3ccc(Br)cc3)cs2)c2ccccc21"
  assignedLabel: "False"

---

test system: RXF 393 renal; experiment: NCI-60 one-dose screen, 48 h; settings: 10 µM unless noted
Compounds without any hit were thinned out: in the full panel of roughly 83,000, 20% have a hit. Calls of active or inactive are those of the source. The calls were made as follows: active = growth percent below 10; inactive = the rest.
Outcome codes: Yes for active, No for inactive

- compound: "Nc1cc(C(=O)N/N=C\\c2ccc(OC(F)F)c(OC3CCCC3)c2)nn1CC(O)c1ccccc1 (configuration not stated)"
  assignedLabel: "No"
- compound: "CC(=O)/C(N=Nc1ccc2oc(=O)ccc2c1)=C(\\C)O"
  assignedLabel: "No"
- compound: "CNC(=O)c1cc(Oc2ccc3c(c2)sc2nc(-c4ccc(N(C)C)cc4)cn23)ccn1"
  assignedLabel: "No"
- compound: "CCNC(=O)Oc1ccc(/C(=C(/C)c2ccc(OC)cc2)c2ccc(OCCN3CCCCCC3)cc2)cc1"
  assignedLabel: "No"
- compound: "C#CCn1cc(/C=N/Nc2nc(-c3ccc(Br)cc3)cs2)c2ccccc21"
  assignedLabel: "No"
- compound: "CC(O)c1cccc(/C(N)=N/C(N)=N/c2nc3ccccc3s2)c1 (configuration not stated)"
  assignedLabel: "No"
- compound: "CC[C@]12CC(C(=O)OC)=C3Nc4ccccc4[C@@]34CCN(C14)[C@@H]1c3cc4c(cc3O[C@@H]1[C@H]2O)NC1=C(C(=O)OC)C[C@@]2(CC)C3N(CC[C@@]143)C[C@H]1O[C@H]12 (some centres not stated)"
  assignedLabel: "Yes"
- compound: "CC[C@H](CC[C@@H](C)[C@H]1CC[C@H]2[C@@H]3CC(=O)C4=CC(=O)/C(=C/c5ccc([N+](=O)[O-])cc5)C[C@]4(C)[C@H]3CC[C@]12C)C(C)C"
  assignedLabel: "No"
- compound: "CN1c2ccccc2Sc2cc(/C=N/Nc3ccnc4cc(Cl)ccc34)ccc21"
  assignedLabel: "No"
- compound: "O=C(CSc1nnc(-c2ccc(Cl)cc2)n1-c1ccccc1)Nc1ccccc1Cl"
  assignedLabel: "No"
- compound: "CC1(C)CC[C@]23CC[C@]4(C)[C@H](CC[C@@H]5[C@@]6(C)CC[C@H](N)C(C)(C)[C@@H]6CC[C@]54C)[C@H]2[C@H]1OC3"
  assignedLabel: "No"
- compound: "COc1ccc(-c2c(C(N)=O)c(N)n(Cc3nc4ccccc4[nH]3)c(=O)c2C#N)c(OC)c1"
  assignedLabel: "No"
- compound: "c1ccc(-c2cn3c(-c4c[nH]c5ccccc45)csc3n2)cc1"
  assignedLabel: "No"
- compound: "CCCCOc1ccc(S(=O)(=O)N2CCN(c3nc(C)cc(N4CCOCC4)n3)CC2)cc1"
  assignedLabel: "No"
- compound: "N#Cc1c(-c2cccs2)cc(-c2cnccn2)nc1SCC(=O)N/N=C/c1ccccc1"
  assignedLabel: "Yes"
- compound: "CC1(C)CC[C@]23CC[C@]4(C)[C@H](CC[C@@H]5[C@@]6(C)CC[C@H](NCO)C(C)(C)[C@@H]6CC[C@]54C)[C@H]2[C@H]1OC3"
  assignedLabel: "No"
- compound: "CCCCc1nc2c(N)nc3ccccc3c2n1Cc1ccc(OC)cc1"
  assignedLabel: "No"
